Measured values drawn from ChEMBL document CHEMBL4627305 for this set.

Assignment: determine reported IC50 for the given molecules.
Target: Beta-secretase 2 (Homo sapiens)
Sequence (Q9Y5Z0 whole entry): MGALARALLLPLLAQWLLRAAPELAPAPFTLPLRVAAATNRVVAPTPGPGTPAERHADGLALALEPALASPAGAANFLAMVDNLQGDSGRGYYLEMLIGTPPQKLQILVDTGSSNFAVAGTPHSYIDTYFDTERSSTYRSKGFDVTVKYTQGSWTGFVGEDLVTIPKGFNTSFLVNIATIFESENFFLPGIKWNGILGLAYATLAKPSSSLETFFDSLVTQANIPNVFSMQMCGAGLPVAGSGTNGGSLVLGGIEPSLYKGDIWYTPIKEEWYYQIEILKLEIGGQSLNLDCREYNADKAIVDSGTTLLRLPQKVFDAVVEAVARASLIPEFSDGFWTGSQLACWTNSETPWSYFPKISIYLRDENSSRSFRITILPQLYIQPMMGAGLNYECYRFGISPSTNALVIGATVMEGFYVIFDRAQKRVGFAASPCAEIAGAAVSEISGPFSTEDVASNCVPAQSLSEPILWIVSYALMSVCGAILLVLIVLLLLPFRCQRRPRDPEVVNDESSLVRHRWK
Numbers only, in nM.

molecule="NC1=N[C@@]2(c3cc(NC(=O)c4cnc(OCF)cn4)ccc3F)COCC[C@H]2CC1(F)F (racemic)" tested_target="Beta-secretase 2 (Homo sapiens)" assay_readout=IC50 numeric_value=10.2
molecule="NC1=N[C@@]2(c3cc(NC(=O)c4cnc(OCF)cn4)ccc3F)CCOC[C@H]2CC1(F)F (racemic)" tested_target="Beta-secretase 2 (Homo sapiens)" assay_readout=IC50 numeric_value=1070

Briefly, IC50 measured for "C[C@@]1(c2cc(NC(=O)c3cnc(OCF)cn3)ccc2F)CCC(F)(F)C(N)=N1" : 126

---

Target: UniProtKB P56817
Sequence (P56817 whole entry): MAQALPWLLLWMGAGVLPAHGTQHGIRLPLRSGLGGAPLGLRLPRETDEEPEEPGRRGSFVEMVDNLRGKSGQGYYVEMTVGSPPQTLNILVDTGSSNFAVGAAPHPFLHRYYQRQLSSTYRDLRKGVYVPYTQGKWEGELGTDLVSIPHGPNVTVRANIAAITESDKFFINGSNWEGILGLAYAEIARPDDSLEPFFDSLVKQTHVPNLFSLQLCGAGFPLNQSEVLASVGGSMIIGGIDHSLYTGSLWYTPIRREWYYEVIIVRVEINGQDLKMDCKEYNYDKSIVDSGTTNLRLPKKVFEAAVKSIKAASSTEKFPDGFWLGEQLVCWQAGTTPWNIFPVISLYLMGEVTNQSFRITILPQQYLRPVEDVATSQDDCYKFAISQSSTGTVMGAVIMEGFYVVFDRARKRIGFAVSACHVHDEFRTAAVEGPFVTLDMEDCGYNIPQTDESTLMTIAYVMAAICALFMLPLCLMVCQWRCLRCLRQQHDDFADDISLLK
Experiment: Inhibition of BACE1 (unknown origin) assessed as reduction in Abeta42 level by cell based assay
Provide the recorded IC50 for the entries that follow.
One number for each entry, in nM.

compound="NC1=N[C@@]2(c3cc(NC(=O)c4cnc(OCF)cn4)ccc3F)CCOC[C@H]2CC1(F)F (racemic)" assay_readout=IC50 measure_unit=nM numeric_value=170
compound="NC1=N[C@@]2(c3cc(NC(=O)c4cnc(OCF)cn4)ccc3F)COCC[C@H]2CC1(F)F (racemic)" assay_readout=IC50 measure_unit=nM numeric_value=7.1
compound=NC1=N[C@@]2(c3cc(NC(=O)c4cnc(OCF)cn4)ccc3F)CO[C@@H](CF)C[C@H]2CC1(F)F assay_readout=IC50 measure_unit=nM numeric_value=4.8
compound=C[C@H]1C[C@H]2CC(F)(F)C(N)=N[C@@]2(c2cc(NC(=O)c3cnc(OCF)cn3)ccc2F)CO1 assay_readout=IC50 measure_unit=nM numeric_value=3.5

Okay, here is my list. What is IC50 for each of these?
1. NC1=N[C@](CF)(c2cc(NC(=O)c3cnc(OCF)cn3)ccc2F)CCC1(F)F
2. C[C@@]1(c2cc(NC(=O)c3cnc(OCF)cn3)ccc2F)CCC(F)(F)C(N)=N1

Result:
[93.3, 16.2]

---

pIC50: −log10 of the molar value.
So I've got pIC50 readings for Cytochrome P450 2D6 (Homo sapiens, UniProt P10635), take a look.

molecule=C[C@@]1(c2cc(NC(=O)c3cnc(OCF)cn3)ccc2F)CCC(F)(F)C(N)=N1 assay_readout=pIC50 result=6.00
molecule=C[C@H]1C[C@H]2CC(F)(F)C(N)=N[C@@]2(c2cc(NC(=O)c3cnc(OCF)cn3)ccc2F)CO1 assay_readout=pIC50 result="< 5.00"

Summary for this molecule, NC1=N[C@@]2(c3cc(NC(=O)c4cnc(OCF)cn4)ccc3F)CCOC[C@H]2CC1(F)F (racemic) : pIC50 is < 5.00

---

Assay: Dissociation constant, pKa of the compound
Assay type: physicochemical
Decision: pKa >= 7 yields Yes, all other cases yield No.

molecule="NC1=N[C@@]2(c3cc(NC(=O)c4cnc(OCF)cn4)ccc3F)CCOC[C@H]2CC1(F)F (racemic)" label_value=No
molecule=NC1=N[C@](CF)(c2cc(NC(=O)c3cnc(OCF)cn3)ccc2F)CCC1(F)F label_value=No
molecule=C[C@H]1C[C@H]2CC(F)(F)C(N)=N[C@@]2(c2cc(NC(=O)c3cnc(OCF)cn3)ccc2F)CO1 label_value=No

Q: Is pKa at least 7? Consider "NC1=N[C@@]2(c3cc(NC(=O)c4cnc(OCF)cn4)ccc3F)CO[C@@H](CF)C[C@H]2CC1(F)F"
Result: No

Q: Please check the record "C[C@@]1(c2cc(NC(=O)c3cnc(OCF)cn3)ccc2F)CCC(F)(F)C(N)=N1" and state if its pKa is at or above 7.
Result: Yes

Q: Reported pKa reaches at least 7 for NC1=N[C@@]2(c3cc(NC(=O)c4cnc(OCF)cn4)ccc3F)COCC[C@H]2CC1(F)F (racemic) ?
Result: No

---

Organism: Homo sapiens
Assay: Selectivity index, ratio of IC50 for BACE2 (unknown origin) to IC50 for BACE1 (unknown origin)
Exercise: for every item that follows, state its recorded Ratio IC50.

// worked examples, Ratio IC50 included
compound="NC1=N[C@@]2(c3cc(NC(=O)c4cnc(OCF)cn4)ccc3F)COCC[C@H]2CC1(F)F (racemic)" result=3
compound=C[C@H]1C[C@H]2CC(F)(F)C(N)=N[C@@]2(c2cc(NC(=O)c3cnc(OCF)cn3)ccc2F)CO1 result=4.5
compound="NC1=N[C@@]2(c3cc(NC(=O)c4cnc(OCF)cn4)ccc3F)CCOC[C@H]2CC1(F)F (racemic)" result=13.5
compound=NC1=N[C@@]2(c3cc(NC(=O)c4cnc(OCF)cn4)ccc3F)CO[C@@H](CF)C[C@H]2CC1(F)F result=3.6

For the next question, use this compound.
Ratio IC50 in this record for "C[C@@]1(c2cc(NC(=O)c3cnc(OCF)cn3)ccc2F)CCC(F)(F)C(N)=N1" : 11

---

Can you tell me microsomal CLint for the items I'm about to list?
Assay: Metabolic stability in dog liver microsomes assessed as intrinsic clearance
Format: ADME, Canis lupus familiaris, Microsome
Conditions: read-out: CLH
Give bare numbers, in µL/min/mg.

Solved cases (3 shown):
compound=C[C@H]1C[C@H]2CC(F)(F)C(N)=N[C@@]2(c2cc(NC(=O)c3cnc(OCF)cn3)ccc2F)CO1 measure_unit=µL/min/mg numeric_value=18.6
compound="NC1=N[C@@]2(c3cc(NC(=O)c4cnc(OCF)cn4)ccc3F)COCC[C@H]2CC1(F)F (racemic)" measure_unit=µL/min/mg numeric_value=15.5
compound="NC1=N[C@@]2(c3cc(NC(=O)c4cnc(OCF)cn4)ccc3F)CCOC[C@H]2CC1(F)F (racemic)" measure_unit=µL/min/mg numeric_value=11.8

Here is the next item to consider.
Item: "C[C@@]1(c2cc(NC(=O)c3cnc(OCF)cn3)ccc2F)CCC(F)(F)C(N)=N1" | microsomal CLint: 10.2
